Reference source for all entries: ChEMBL document CHEMBL3593244

# study target: Histone deacetylase (HDAC1 and HDAC2) (Homo sapiens, UniProt Q13547+Q92769)
# assay protocol: Inhibition of HDAC1/2 in human HeLa cell nuclear extracts preincubated for 5 mins followed by substrate addition measured after 0.5 hrs by Color de Lys assay
# Type: cell-based
measured endpoint: IC50 (nM)
// note: answer is a bare numeric in nM

O=C(CCCCCC(=O)NCc1ccc2cc(Cl)ccc2n1)NO = 120
O=C(CCCCCC(=O)NCc1ccc2cc(F)ccc2n1)NO = 155
O=C(CCCCCC(=O)NCc1cc(C(=O)Nc2ccccc2)c2ccccc2n1)NO = 301

Query: Which IC50 value belongs to `CCCCNC(=O)c1cc(CNC(=O)CCCCCC(=O)NO)nc2ccccc12` ?
Result: 444

Query: Using the record for `O=C(CCCCCC(=O)NCc1cc(C(=O)NCc2ccccc2)c2cc(-c3ccccc3)ccc2n1)NO` , report its IC50.
Result: 341

Query: # IC50 lookup, item `O=C(CCCCCC(=O)NCc1cc(C(=O)NCc2ccccc2)c2cc(Br)ccc2n1)NO`
Result: 343

Query: For `O=C(CCCCCCC(=O)NCc1cc(C(=O)NCc2ccccc2)c2ccccc2n1)NO` , what is its reported IC50?
Result: 780

Query: Value lookup for IC50; key = `O=C(CCCCCC(=O)NCc1ccc2ccccc2n1)NO`
Result: 266

Query: Requested read-out: IC50. Entry: `O=C(CCCCCCC(=O)NCc1cc(C(=O)Nc2ccccc2)c2ccccc2n1)NO`
Result: 562

Query: What IC50 value was documented for this molecule, `O=C(CCCCCC(=O)NCc1cc(C(=O)Nc2ccccc2)c2cc(Br)ccc2n1)NO` ?
Result: 196

----------
IC50 by entry:
# Tested on: K562
# assay protocol: cells
# Assay type: functional, cell-based
# protocol conditions: Homo sapiens, K562, 48 h
# Description: Cytotoxicity against human K562 cells assessed as inhibition of cell proliferation after 48 hrs by MTT assay
Reply with just the number (in µM).

O=C(CCCCCC(=O)NCc1ccc2cc(Br)ccc2n1)NO = 4.86
O=C(CCCCCC(=O)NCc1ccc2cc(Cl)ccc2n1)NO = 3.39

Shift focus to the following entry.
Query: Recorded IC50 of `O=C(CCCCCC(=O)NCc1ccc2cc(I)ccc2n1)NO` , please.
Result: 2.45

----------
# study target: Histone deacetylase (HDAC1 and HDAC2) (Homo sapiens, UniProt Q13547+Q92769)
# assay protocol: Inhibition of HDAC1/2 in human HeLa cell nuclear extracts preincubated for 5 mins followed by substrate addition measured after 0.5 hrs by Color de Lys assay
# Assay type: cell-based
# Lookup of reported IC50 keyed by entry

Recorded results for 4 molecules are shown here.
O=C(CCCCCC(=O)NCc1cc(C(=O)NCc2ccccc2)c2ccccc2n1)NO = 399 nM
CNC(=O)c1cc(CNC(=O)CCCCCCC(=O)NO)nc2ccccc12 = > 1000 nM
O=C(CCCCCCC(=O)NCc1ccc2cc(Br)ccc2n1)NO = 146 nM
O=C(CCCCCC(=O)NCc1ccc2cc(-c3ccccc3)ccc2n1)NO = 152 nM

Here's the next entry for you.
Query: // query IC50 value for entry `O=C(CCCCCC(=O)NCc1ccc2cc(Br)ccc2n1)NO`
Result: 85 nM

----------
List of pIC50 values.
# Tested on: A549
# assay protocol: cells
# Assay type: functional, cell-based
# protocol conditions: Homo sapiens, A549, 48 h
# Description: Cytotoxicity against human A549 cells assessed as inhibition of cell proliferation after 48 hrs by MTT assay
As a rule, pIC50 stands for the negative log10 of the concentration, concentration in M.

Known results for compounds:
O=C(CCCCCC(=O)NCc1ccc2cc(Br)ccc2n1)NO = 5.41
O=C(CCCCCC(=O)NCc1ccc2cc(Cl)ccc2n1)NO = 5.57

Shifting focus to the compound that follows.
Query: Item `O=C(CCCCCC(=O)NCc1ccc2cc(I)ccc2n1)NO` has what recorded pIC50?
Result: 5.59
